Tested on: OVCAR-4 ovarian
Assay: NCI tumour cell line growth inhibition, 48 h
experimental readout: TGI

Please review the entries below; each comes with its answer.
molecule | experimental readout | obs value
C[N+](C)(C)CC(=O)NC(=O)N/N=C\C(CC#N)CN(Cc1ccccc1)Cc1ccccc1 (centres undefined) | TGI | > 100 µM
CSCC[C@@H](NC(=O)[C@H](CC(C)C)NC(=O)C(Cc1cnc[nH]1)NC(=O)CNC(=O)[C@@H](NC(=O)[C@H](C)NC(=O)[C@H](Cc1cn(C=O)c2ccccc12)NC(=O)[C@H](CCC(N)=O)NC(=O)[C@@H](N)CC(N)=O)C(C)C)C(N)=O (some centres undefined) | TGI | > 100 µM
O=c1c2ccccc2oc2nccnc12 | TGI | > 100 µM
O=C(Nc1ccc(Cl)cc1Cl)c1c/c(=N\O)c2ccc(O)cc2o1 | TGI | > 100 µM
C=CC[n+]1c(/C=C2\Sc3ccccc3N2C)sc(-c2ccccc2)c1-c1ccccc1 | TGI | 11.9 µM
CC(C)n1c2c(c3ccccc3c1=O)C(=O)c1ccccc1-2 | TGI | > 100 µM
COc1cc2c3c(c1OC)C1(C=CC(=O)C=C1)CC3N(C(=O)OC(C)(C)C(Cl)(Cl)Cl)CC2 (centres undefined) | TGI | 40.3 µM
Cc1cc(CC(O)(C(F)(F)F)C(F)(F)F)cc(CC(O)(C(F)(F)F)C(F)(F)F)n1 | TGI | 12.6 µM

Quickly give me recorded TGI for CC(=O)NC1=NC(=O)/C(=C/c2ccc(Cl)cc2Cl)N1C
> 100 µM
